Target: p110δ/p85α (Homo sapiens)
Sequence (O00329 whole entry): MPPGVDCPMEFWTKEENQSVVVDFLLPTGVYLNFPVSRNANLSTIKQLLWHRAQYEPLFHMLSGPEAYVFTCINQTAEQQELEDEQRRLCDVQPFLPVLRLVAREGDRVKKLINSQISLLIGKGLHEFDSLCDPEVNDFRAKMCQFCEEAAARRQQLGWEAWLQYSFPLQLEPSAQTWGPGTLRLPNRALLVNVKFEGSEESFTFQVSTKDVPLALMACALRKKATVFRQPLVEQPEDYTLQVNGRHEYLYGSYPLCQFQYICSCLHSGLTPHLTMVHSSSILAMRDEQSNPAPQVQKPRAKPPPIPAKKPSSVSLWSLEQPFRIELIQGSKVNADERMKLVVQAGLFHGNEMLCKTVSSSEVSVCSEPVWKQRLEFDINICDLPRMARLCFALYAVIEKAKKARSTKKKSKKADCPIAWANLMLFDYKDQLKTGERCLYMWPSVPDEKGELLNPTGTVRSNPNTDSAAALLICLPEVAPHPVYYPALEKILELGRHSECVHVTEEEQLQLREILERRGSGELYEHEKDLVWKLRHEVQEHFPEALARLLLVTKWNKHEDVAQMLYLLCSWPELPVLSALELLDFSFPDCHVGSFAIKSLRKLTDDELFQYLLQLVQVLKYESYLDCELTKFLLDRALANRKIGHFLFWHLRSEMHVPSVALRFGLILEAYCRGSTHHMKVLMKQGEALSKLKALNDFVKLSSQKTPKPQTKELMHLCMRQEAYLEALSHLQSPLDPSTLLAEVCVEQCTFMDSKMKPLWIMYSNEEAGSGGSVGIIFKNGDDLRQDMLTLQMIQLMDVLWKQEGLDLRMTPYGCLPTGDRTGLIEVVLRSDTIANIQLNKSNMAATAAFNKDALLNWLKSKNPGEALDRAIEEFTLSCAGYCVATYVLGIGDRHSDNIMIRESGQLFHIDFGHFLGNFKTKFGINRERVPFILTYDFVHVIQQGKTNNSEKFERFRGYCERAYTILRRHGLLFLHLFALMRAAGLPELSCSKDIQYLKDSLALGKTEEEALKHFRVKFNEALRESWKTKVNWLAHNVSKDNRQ
Sequence (P27986 whole entry partner): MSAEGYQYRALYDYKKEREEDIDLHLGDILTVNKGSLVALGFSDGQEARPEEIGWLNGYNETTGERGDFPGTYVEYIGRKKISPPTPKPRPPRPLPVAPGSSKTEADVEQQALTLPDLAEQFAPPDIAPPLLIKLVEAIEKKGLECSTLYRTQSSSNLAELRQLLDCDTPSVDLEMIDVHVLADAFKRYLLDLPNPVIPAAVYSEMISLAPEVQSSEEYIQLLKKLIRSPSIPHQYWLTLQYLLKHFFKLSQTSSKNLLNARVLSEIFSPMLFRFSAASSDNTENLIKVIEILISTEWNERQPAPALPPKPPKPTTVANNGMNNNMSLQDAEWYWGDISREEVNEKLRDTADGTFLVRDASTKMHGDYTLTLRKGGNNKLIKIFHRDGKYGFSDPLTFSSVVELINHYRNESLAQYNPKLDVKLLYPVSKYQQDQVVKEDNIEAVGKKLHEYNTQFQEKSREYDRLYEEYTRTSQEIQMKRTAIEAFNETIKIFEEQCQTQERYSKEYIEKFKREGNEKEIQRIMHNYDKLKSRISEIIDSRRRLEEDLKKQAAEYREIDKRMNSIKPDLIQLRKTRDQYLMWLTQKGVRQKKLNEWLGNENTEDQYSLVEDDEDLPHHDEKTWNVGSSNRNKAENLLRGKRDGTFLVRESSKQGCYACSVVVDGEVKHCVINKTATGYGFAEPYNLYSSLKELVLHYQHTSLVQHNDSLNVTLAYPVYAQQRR
Assay: Transcreener KINASE Assay, kinase inhibition of p110δ/p85α
Assay type: biochemical
Settings: 1 uM test compound
Readout Label: PI3Kδ IH % @ 1 uM (%)

* C#Cc1ccn2nc([C@@H]3CCN3c3ncnc4[nH]cc(C#N)c34)n(-c3ccccc3)c(=O)c12 [Compound 105] | 90.0
* O=c1c2c(Cl)ccn2nc([C@@H]2CC(F)(F)CN2c2ncnc3[nH]cnc23)n1Cc1ncccn1 [Compound 161] | 45.7
* C[S+]([O-])c1c[nH]c2ncnc(N3CCC[C@H]3c3nn4ccc(F)c4c(=O)n3-c3ccccc3)c12 (stereo partly shown) [Compound 219] | 98.4
* CO[C@@H]1C[C@@H](c2nn3ccc(Cl)c3c(=O)n2-c2ccccc2)N(c2ncnc3[nH]cnc23)C1 [Compound 72] | 91.6

a. Nc1nc(N2CC[C@H]2c2nn3ccc(Cl)c3c(=O)n2-c2ccccc2)c2cccn2n1 [Compound 329]
b. N#Cc1c[nH]c2ncnc(N3CC(=O)C[C@H]3c3nn4ccc(Cl)c4c(=O)n3-c3ccccc3)c12 [Compound 380]
For the two items a and b , which reports the higher PI3Kδ IH % @ 1 uM value? Refer to your chosen item by its label in the answer.
b

meta.source: patent US20150307520A1
